Tested on: Danio rerio Tg(wt1b:EGFP) embryo, pronephros
Test: fraction of imaged embryos annotated as normal kidney; higher = less nephrotoxic; extreme values may be limits of the assay
Settings: 25 µM; exposure: 24-48 hpf
Structures can show the parent of a compound that is named as a salt.
test-readout: fraction of imaged embryos annotated as normal kidney

Qu. Fill in: fraction of imaged embryos annotated as normal kidney of N=C(N)NCC1COC2(CCCCC2)O1 (configuration not stated) [Guanadrel sulfate] is ___
Ans. 0.75

Qu. Requested read-out: fraction of imaged embryos annotated as normal kidney. Entry: O=C1Cc2cc(CCN3CCN(c4nsc5ccccc45)CC3)c(Cl)cc2N1 [Ziprasidone Hydrochloride]
Ans. 0.833

Qu. Which value of fraction of imaged embryos annotated as normal kidney has been reported for COc1cc2c(cc1OC)C(=O)C(CC1CCN(Cc3ccccc3)CC1)C2 (configuration not stated) [Donepezil hydrochloride] in the records?
Ans. 0.833

Qu. Requested field: fraction of imaged embryos annotated as normal kidney. Item: O=C(c1ccccc1)c1ccc2n1CCC2C(=O)O (configuration not stated) [Ketorolac tromethamine]
Ans. 0.667

Qu. Fill in: fraction of imaged embryos annotated as normal kidney of CCN(CC)CCc1nc(-c2ccccc2)no1 [Oxalamine citrate salt] is ___
Ans. 0.917

Qu. Record request: fraction of imaged embryos annotated as normal kidney value, item COc1ccc2[nH]c([S+]([O-])Cc3ncc(C)c(OC)c3C)nc2c1 (configuration not stated) [Omeprazole]
Ans. 0.667

Qu. Reported fraction of imaged embryos annotated as normal kidney, compound C=C1/C(=C\C=C2/CCC[C@]3(C)[C@@H]([C@H](C)/C=C/[C@@H](O)C4CC4)CC[C@@H]23)C[C@@H](O)C[C@@H]1O [Calcipotriene] : ____
Ans. 0.75

// provenance: the supplement of paper PMC7366291
